Taken from patent US20120213794A1.

# EXPERIMENTAL SYSTEM: T1, human PCSK9 (human, UniProt Q8NBP7 31-692)
# T1 construct: also called hPCSK9; proprotein convertase subtilisin-kexin type 9
# T1 sequence (Q8NBP7 31-692 limits assumed): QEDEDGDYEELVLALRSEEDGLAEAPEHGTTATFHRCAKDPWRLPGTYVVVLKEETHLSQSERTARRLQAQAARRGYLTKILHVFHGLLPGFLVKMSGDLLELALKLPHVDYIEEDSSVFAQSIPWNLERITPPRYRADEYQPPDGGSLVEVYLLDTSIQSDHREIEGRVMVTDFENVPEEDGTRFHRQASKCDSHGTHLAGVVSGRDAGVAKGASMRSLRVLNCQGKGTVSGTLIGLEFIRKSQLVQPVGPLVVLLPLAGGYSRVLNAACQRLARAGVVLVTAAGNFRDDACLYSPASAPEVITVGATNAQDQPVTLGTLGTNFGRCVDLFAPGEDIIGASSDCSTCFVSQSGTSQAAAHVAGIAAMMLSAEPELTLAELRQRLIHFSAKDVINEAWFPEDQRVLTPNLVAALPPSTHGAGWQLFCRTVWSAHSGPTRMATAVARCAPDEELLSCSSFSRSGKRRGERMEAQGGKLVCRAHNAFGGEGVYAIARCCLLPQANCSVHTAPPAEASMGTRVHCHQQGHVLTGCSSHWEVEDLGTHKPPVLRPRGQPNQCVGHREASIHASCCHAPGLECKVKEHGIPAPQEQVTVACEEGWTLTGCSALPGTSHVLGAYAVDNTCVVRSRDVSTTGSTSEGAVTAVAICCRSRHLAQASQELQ
# ASSAY OVERVIEW: SPR (Biacore), Fab captured by anti-Fab IgG, 1:1 fit
MEASURED QUANTITY: kon (M⁻¹ s⁻¹)
State just the number; it will be interpreted in M⁻¹ s⁻¹.

Tell me the measured kon of AX213 Fab (Fab, V domains shown) VH: QVQLLESGGGLVQPGGSLRLSCKASGYTFSRYGINWVRQAPGKGLEWIGRIDPGNGGTRYNEKFKGKATISRDNSKNTLYLQMNSLRAEDTAVYYCARANDGYSFDYWGQGTLVTVSS VL: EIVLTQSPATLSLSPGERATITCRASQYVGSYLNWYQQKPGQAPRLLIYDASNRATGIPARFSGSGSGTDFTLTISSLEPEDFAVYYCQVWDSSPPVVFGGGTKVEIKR , please.
243000

Tell me the measured kon of AX212 Fab (Fab, V domains shown, Tested as purified Fab) VH: QVQLLESGGGLVQPGGSLRLSCKASGYTFSSYSFSWVRQAPGKGLEWIGYIDPGSGGTKYNQKFQGKATISRDNSKNTLYLQMNSLRAEDTAVYYCARQRVGYSLDYWGQGTLVTVSS VL: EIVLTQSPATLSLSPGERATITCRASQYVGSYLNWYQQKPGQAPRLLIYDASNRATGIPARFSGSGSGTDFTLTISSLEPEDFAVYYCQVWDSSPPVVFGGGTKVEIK , please.
159000

Tell me the measured kon of AX114 Fab (Fab, V domains shown, Tested as purified Fab from E. coli TG1) VH: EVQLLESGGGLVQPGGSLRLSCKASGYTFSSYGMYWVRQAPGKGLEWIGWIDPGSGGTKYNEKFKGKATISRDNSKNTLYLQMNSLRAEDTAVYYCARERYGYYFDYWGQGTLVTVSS VL: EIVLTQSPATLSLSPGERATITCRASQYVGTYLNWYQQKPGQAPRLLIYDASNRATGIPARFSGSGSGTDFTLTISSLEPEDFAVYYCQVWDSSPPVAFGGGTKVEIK , please.
71700
